experiment: qHTS of pediatric cancer cell lines to identify multiple opportunities for drug repurposing: Primary screen for DAOY cells (AID 1347090); conditions: DAOY medulloblastoma viability, CellTiter-Glo luminescence, 48 h; series mostly up to 46 µM; also: nearly all actives have a fitted effect of over 55% in size; also: potency is read from the fitted curve at half-maximal effect
Inconclusive results are not listed. Active and inactive are the calls of the source. Calls follow the shape of the dose curve; as a rule, active = well fitted cell-killing curve with a large enough effect; inconclusive = small, poorly fitted or top-dose-only effect; inactive = flat fitted curve, though single readings scatter.
VALUE TYPE: Potency

[[record]]
molecule = "COc1cccc2c1C(=O)c1c(O)c3c(c(O)c1C2=O)C[C@@](O)(C(=O)CO)C[C@@H]3O[C@H]1C[C@H](N)[C@H](O[C@@H]2CCCCO2)[C@H](C)O1"
observed_result = "1680 nM (active)"

[[record]]
molecule = "Cc1ccc(O)c(-n2nc3ccccc3n2)c1"
observed_result = "inactive"

[[record]]
molecule = "C#C[C@]1(O)CC[C@H]2[C@@H]3CCc4cc(O)ccc4[C@H]3CC[C@@]21C"
observed_result = "13300 nM (active)"

[[record]]
molecule = "Cc1c(Nc2ncccc2C(=O)O)cccc1C(F)(F)F"
observed_result = "inactive"

[[record]]
molecule = "O=C(OCc1ccccc1)c1ccccc1"
observed_result = "inactive"

[[record]]
molecule = "O=C(O)Cc1ccc(-c2ccccc2)cc1"
observed_result = "inactive"

[[record]]
molecule = "CC(=O)c1ccc(OCC(=O)N2CCCCC2)cc1"
observed_result = "inactive"

[[record]]
molecule = "CCCC(=O)OC[C@@H](OC(=O)CCC)[C@@H](OC(=O)CCC)[C@H](Cn1c2nc(=O)[nH]c(=O)c-2nc2cc(C)c(C)cc21)OC(=O)CCC"
observed_result = "inactive"

[[record]]
molecule = "C=CCCCCCCCCC(=O)O"
observed_result = "inactive"

[[record]]
molecule = "COc1cc(NC(C)CCCN)c2ncccc2c1 (configuration not stated)"
observed_result = "inactive"

[[record]]
molecule = "S=c1[nH]c2ccccc2s1"
observed_result = "inactive"

[[record]]
molecule = "Nc1cc(-c2ccncc2)c[nH]c1=O"
observed_result = "inactive"

[[record]]
molecule = "C[N+]1(C)[C@@H]2CC(OC(=O)[C@H](CO)c3ccccc3)C[C@H]1[C@@H]1O[C@@H]12 (some centres not stated)"
observed_result = "inactive"

[[record]]
molecule = "O=C1CN(/N=C/c2ccc([N+](=O)[O-])o2)C(=O)N1"
observed_result = "inactive"

[[record]]
molecule = "Nc1ccc(O)c(C(=O)O)c1"
observed_result = "inactive"

[[record]]
molecule = "O=Cc1ccc(O)c(O)c1O"
observed_result = "inactive"

[[record]]
molecule = "NCCO"
observed_result = "inactive"

[[record]]
molecule = "CN1CCN(c2cc3c(nn2)Oc2ccccc2N3C)CC1"
observed_result = "inactive"

[[record]]
molecule = "CN(C)CCn1nnnc1SCC1=C(C(=O)O)N2C(=O)[C@@H](NC(=O)Cc3csc(N)n3)[C@H]2SC1"
observed_result = "inactive"

[[record]]
molecule = "CN(C)[C@@H]1C(=O)C(C(=O)NCN2CCCC2)=C(O)[C@@]2(O)C(=O)C3=C(O)c4c(O)cccc4[C@@](C)(O)C3C[C@@H]12 (some centres not stated)"
observed_result = "inactive"

[[record]]
molecule = "COC(=O)c1nc(Cl)c(Cl)nc1N"
observed_result = "1330 nM (active)"

[[record]]
molecule = "O=C(O)Cc1ccc2c(c1)C(=O)c1ccccc1CO2"
observed_result = "inactive"

[[record]]
molecule = "Cc1c(C(=O)O)c(O)cc2c1C(=O)c1c(O)c([C@@H]3O[C@H](CO)[C@@H](O)[C@H](O)[C@H]3O)c(O)c(O)c1C2=O"
observed_result = "inactive"

[[record]]
molecule = "Cc1ccc(C(=O)c2ccc(CC(=O)O)n2C)cc1"
observed_result = "inactive"

[[record]]
molecule = "CC(C)OC(=O)c1cc(C(=O)OC(C)C)cc([N+](=O)[O-])c1"
observed_result = "inactive"

[[record]]
molecule = "Nc1ccc([N+](=O)[O-])cc1O"
observed_result = "1 nM (active)"

[[record]]
molecule = "COc1cc2c3cc1Oc1cc(ccc1O)C[C@@H]1c4c(cc(OC)c(O)c4Oc4ccc(cc4)C[C@@H]3N(C)CC2)CC[N+]1(C)C"
observed_result = "inactive"

[[record]]
molecule = "N=C1N=C(N)c2cc3ccccc3cc21"
observed_result = "24300 nM (active)"

[[record]]
molecule = "CCCCCCOc1ccccc1C(N)=O"
observed_result = "inactive"

[[record]]
molecule = "CC(=O)SCC(CC(=O)c1ccc(C)cc1)C(=O)O (configuration not stated)"
observed_result = "inactive"

[[record]]
molecule = "CCCCCCCCCCCCCCCCCC(=O)O"
observed_result = "inactive"

[[record]]
molecule = "O=C(Nc1ccc(C(=O)O)c(O)c1)c1ccccc1"
observed_result = "inactive"

[[record]]
molecule = "CN(C)c1ccc(C(=C2C=CC(=[N+](C)C)C=C2)c2ccccc2)cc1"
observed_result = "106 nM (active)"

[[record]]
molecule = "Nc1c(CC(=O)O)cccc1C(=O)c1ccc(Br)cc1"
observed_result = "inactive"

[[record]]
molecule = "O=C(/C=C/c1ccccc1)NCCO"
observed_result = "inactive"

[[record]]
molecule = "CC(C)(C)c1nnc(NS(=O)(=O)c2ccc(N)cc2)s1"
observed_result = "inactive"

[[record]]
molecule = "CCOC(=O)c1ccccc1O"
observed_result = "inactive"

[[record]]
molecule = "CC(C(=O)O)c1ccc2c(c1)[nH]c1ccc(Cl)cc12 (configuration not stated)"
observed_result = "inactive"

[[record]]
molecule = "Oc1c(Br)cc(Br)c2cccnc12"
observed_result = "16800 nM (active)"

[[record]]
molecule = "CCCCCCCCCCCCOCCO"
observed_result = "inactive"

[[record]]
molecule = "Cc1ccc2c(n1)Oc1ccc(C(C)C(=O)OCC(=O)N(C)C)cc1C2 (configuration not stated)"
observed_result = "inactive"

[[record]]
molecule = "c1ccc2sc(SSc3nc4ccccc4s3)nc2c1"
observed_result = "inactive"


* * *

target: Voltage-gated inwardly rectifying potassium channel KCNH2 (Homo sapiens); experiment: qHTS Assay for Small Molecule Inhibitors of the Human hERG Channel Activity (AID 588834); conditions: U2OS BacMam hERG, FluxOR thallium flux fluorescence; series mostly up to 46.1 µM;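 also: U2OS cells transduced with hERG by BacMam; top concentration of the series differs between compounds; lower thallium flux fluorescence means stronger hERG block; nearly all actives have a fitted effect of over 50% in size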
Results filed as inconclusive are left out. The source made the active and inactive calls. Calls follow the shape of the dose curve; as a rule, active = well fitted inhibition curve with a large enough effect; inconclusive = small, poorly fitted or top-dose-only effect; inactive = flat fitted curve, though single readings scatter.
VALUE TYPE: outcome

[[record]]
query_smiles = "Cc1ccc(O)c(N=Nc2ccccc2)n1"
observed_result = "inactive"

[[record]]
query_smiles = "Clc1ccccc1-c1nc(-c2ccncc2)no1"
observed_result = "inactive"

[[record]]
query_smiles = "[O-][n+]1ccccc1SSc1cccc[n+]1[O-]"
observed_result = "inactive"

[[record]]
query_smiles = "COc1ccc(/C=C/C(=O)Nc2ccccc2C(=O)O)cc1OC"
observed_result = "inactive"

[[record]]
query_smiles = "O=C(OCc1ccccc1)c1ccccc1"
observed_result = "inactive"

[[record]]
query_smiles = "C[N+](C)(CCCCCC[N+](C)(C)CCCN1C(=O)c2cccc3cccc(c23)C1=O)CCCN1C(=O)c2cccc3cccc(c23)C1=O"
observed_result = "inactive"

[[record]]
query_smiles = "NCCCS(=O)(=O)O"
observed_result = "inactive"


* * *

system: SKOV3; experiment: Primary qHTS to identify gynecologic anti-cancer compounds using libraries of approved drugs and bioactive compounds (AID 1345084); details: Gynecologic cancer cell panel viability, ATPlite luminescence, 48 h; series mostly up to 57.5 µM; also: nearly all actives have a fitted effect of over 55% in size
Records with an inconclusive call do not appear. Activity calls are given as the source filed them. Calls come from the whole dose curve; as a rule, active = well fitted cell-killing curve with a large enough effect; inconclusive = small, poorly fitted or top-dose-only effect, or effect the other way; inactive = flat fitted curve, though single readings scatter.
Outcomes: 1 = active, -1 = inactive

[[record]]
molecule = "CN1CCN(c2cc3c(nn2)Oc2ccccc2N3C)CC1"
category = -1

[[record]]
molecule = "CCCOC(=O)c1ccc(O)cc1"
category = -1

[[record]]
molecule = "O=C1CN(/N=C/c2ccc([N+](=O)[O-])o2)C(=O)N1"
category = 1

[[record]]
molecule = "CN(C)CCn1nnnc1SCC1=C(C(=O)O)N2C(=O)[C@@H](NC(=O)Cc3csc(N)n3)[C@H]2SC1"
category = -1

[[record]]
molecule = "Cc1c(C(=O)O)c(O)cc2c1C(=O)c1c(O)c([C@@H]3O[C@H](CO)[C@@H](O)[C@H](O)[C@H]3O)c(O)c(O)c1C2=O"
category = -1

[[record]]
molecule = "Cc1onc(-c2c(F)cccc2Cl)c1C(=O)N[C@@H]1C(=O)N2[C@@H]1SC(C)(C)[C@@H]2C(=O)O"
category = -1

[[record]]
molecule = "Nc1ccc(O)c(C(=O)O)c1"
category = -1

[[record]]
molecule = "CC(N)C(=O)OC(C)(C)Cc1ccc(Cl)cc1 (configuration not stated)"
category = -1

[[record]]
molecule = "C[C@H](O)[C@H](O)[C@H]1CNc2nc(N)[nH]c(=O)c2N1"
category = -1

[[record]]
molecule = "C=CCCCCCCCCC(=O)O"
category = -1

[[record]]
molecule = "Cc1cc(O)c2ccccc2c1O"
category = -1

[[record]]
molecule = "Clc1ccccc1-c1nc(-c2ccncc2)no1"
category = 1

[[record]]
molecule = "CC1(C)S[C@@H]2[C@H](NC(=O)[C@H](N)c3ccccc3)C(=O)N2[C@H]1C(=O)O"
category = -1

[[record]]
molecule = "CS(=O)(=O)c1ccc(-n2nc(C(F)(F)F)cc2-c2ccc(F)cc2)cc1"
category = -1

[[record]]
molecule = "CN1[C@@H]2CC[C@H]1CC(OC(=O)C(CO)c1ccccc1)C2 (some centres not stated)"
category = -1

[[record]]
molecule = "CCCCCCCCCCCCCCCCCC(=O)O"
category = -1

[[record]]
molecule = "Cc1c(Nc2ncccc2C(=O)O)cccc1C(F)(F)F"
category = -1

[[record]]
molecule = "Nc1ccc(O)c([N+](=O)[O-])c1"
category = -1

[[record]]
molecule = "O=C(O)/C=C\\C(=O)O"
category = -1

[[record]]
molecule = "c1ccc(CCNc2nc(-c3ccccc3)cs2)cc1"
category = -1

[[record]]
molecule = "Cc1c(N)c(=O)n(-c2ccccc2)n1C"
category = -1

[[record]]
molecule = "O=C(Nc1ccc(C(=O)O)c(O)c1)c1ccccc1"
category = -1

